# Tested on: PXR homodimer (NR concentration 270 nM)
# PROCEDURE TEXT: PBM binding z-score (relative to random genomic background probes); higher = stronger binding; sequences stand for … in GC…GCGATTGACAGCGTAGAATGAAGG
Listing of entries alongside the reported PBM binding z-score.
API note: the answer field is a bare number with no unit suffix.

// known answers, use as guide
| ITEM SEQUENCE | PBM binding z-score |
| --- | --- |
| CAAACTAGGACACGAAAGGTCAAAGTCGAATGAC | 1.78 |
| CCTACTCGGCCATTCAGAGGTCATTGATCATATG | 3.38 |
| CCGACTGGGGCAGAAAGGTTACGATACCATCCGG | -0.337 |
| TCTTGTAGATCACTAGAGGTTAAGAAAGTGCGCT | 0.56 |
| TGTCAAAGTTCAAAGGTACCGTAAGTATCCACAC | 3.76 |
| CGTCCAAGGTTAATGCTAGGTCAGTGAAAGCATT | 0.209 |
| TGTCAAAGTTCAAAGGTAACGTAAGTATCCACAC | 3.43 |
| ACTTTTAGTTGAGACGAGGGCAACCGATAGGTTG | 0.341 |

Note: attention shifts to another entry.
Tested on PXR homodimer (NR concentration 270 nM): TAGCCTAGGTCAGATCGGGCCGGTATACGCTATA . Observed PBM binding z-score: -0.722

----------
# System: PPARg DBDmut:RXRa IVT, anti-PPARg (DBD mutation: PPARg1 K132A/R137A, NR concentration 270 nM, RXRa partner concentration 90 nM)
# PROCEDURE TEXT: PBM binding z-score (relative to random genomic background probes); higher = stronger binding; sequences stand for … in GC…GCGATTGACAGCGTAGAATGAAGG
ENDPOINT LABEL: PBM binding z-score
Write no unit; give the number alone.

Below: 4 sequences and their reported PBM binding z-score.
| ITEM SEQUENCE | PBM binding z-score |
| --- | --- |
| CACCCTAGGTCAGGGCCAGTATAGGAGGAACGTT | -0.28 |
| TCTTGTAGATCAACAGGAGGTTAAGACAGATCGA | 0.978 |
| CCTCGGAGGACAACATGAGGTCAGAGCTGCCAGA | -0.816 |
| GGAACGAGGGCATGCGAGTTGATAGCATGGCGAT | -0.352 |

PBM binding z-score measured on CCTAGCAGGCCCATCTGGGTCACTCAAGGCTTGA = -1.01

Record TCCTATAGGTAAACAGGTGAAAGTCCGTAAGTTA , field PBM binding z-score: 0.2

// sample GCTTACGGGTCAAAGGTTATAGGATGAATAGAAT , its PBM binding z-score was 2.01

# PBM binding z-score of CCTTACGGGTCACGAGGTTATAACACGACGAGCG = 1.01

----------
# Tested on: PPARg:RXRa 30nM:10nM, anti-RXR (NR concentration 30 nM, RXRa partner concentration 10 nM)
# PROCEDURE TEXT: PBM binding z-score (relative to random genomic background probes); higher = stronger binding; sequences stand for … in GC…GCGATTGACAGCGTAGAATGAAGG
ENDPOINT LABEL: PBM binding z-score
Give only the figure.

| ITEM SEQUENCE | PBM binding z-score |
| --- | --- |
| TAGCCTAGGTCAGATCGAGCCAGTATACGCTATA | -0.102 |

The sequence identified as TAGCCTAGGTCATGGGCCAGTATTCCACGCGAAC registered its PBM binding z-score at 1.17

PBM binding z-score reported for this sequence TCGAGTAGGTTACCAATGGGGCGTTCAGCTTTCT : 0.919

Noted for TGAATGAGGTTAAAGACCAGGGAACGTGGCGTCG : its PBM binding z-score reads 2.42

Entry CGTCCAAGGTCAGAGAGGGCAGTGAATGCCGAGT ; PBM binding z-score = 0.148

----------
Reported values of PBM binding z-score for individual entries
# System: PPARg DBDmut:RXRa IVT, anti-PPARg (DBD mutation: PPARg1 K132A/R137A, NR concentration 270 nM, RXRa partner concentration 90 nM)
# PROCEDURE TEXT: PBM binding z-score (relative to random genomic background probes); higher = stronger binding; sequences stand for … in GC…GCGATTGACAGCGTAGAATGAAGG
Write the number on its own, no unit after it.

| ITEM SEQUENCE | PBM binding z-score |
| --- | --- |
| AGTATGAGGTTAAGATCAGGGAAACAGAATACAT | 0.752 |
| CCTAGCAGGCCAATCTCGGTCACTCAAGGCTTGA | -0.633 |
| CGAACGAGGGCATGAGTAGATAGCAAATGCCGAT | -0.283 |
| CGTACAAGGTCATAGGAGGTCAGTGAAGACAGAT | 1.11 |
| GCTTGTTGATCAAGGTTAAGAAAGACTAAGCTAA | 0.234 |
| GCTAGTTGGTCAGTAATAGGTCACACACCGGTCG | -0.0555 |

Moving on to the next sequence.
What the record says about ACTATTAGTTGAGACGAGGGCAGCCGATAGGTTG : PBM binding z-score is 0.598

----------
# System: RXRa DBDmut IVT, anti-RXR (DBD mutation: RXRa K156A/R161A, NR concentration 90 nM)
# PROCEDURE TEXT: PBM binding z-score (relative to random genomic background probes); higher = stronger binding; sequences stand for … in GC…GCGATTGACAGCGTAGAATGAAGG
Below, each of the sequences is paired with its reported PBM binding z-score value.

# example entries with known answers
| ITEM SEQUENCE | PBM binding z-score |
| --- | --- |
| GCATATAGGTAATACAGGGTGAAAGTCCGATTGT | 0.439 |
| TCGAGTGGGTTAGGGGCATTCAGAATGGCGTCGA | 0.231 |
| CCGACTGGGGCAAGTTTACCATAACGCACAGCCA | 0.533 |
| TCGTGTAGATCAATAGAGGTTAAGAAAGTGCGCT | 0.621 |

The reported PBM binding z-score of the sequence TCTTGTAGATCAAAGGTTATGAAAGCCGAAGCCT was 0.966

Memo: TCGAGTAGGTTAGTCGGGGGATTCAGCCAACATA , reported PBM binding z-score: 0.48

# PBM binding z-score of TTCCCAAGGTGAAAGGTCGTTGATGCACGCCTTG = 0.532

TCGAGTAGGTTAGGGGCATTCCGAATGGCGTCGA has a reported PBM binding z-score of 0.278

----------
Entries and their PBM binding z-score values follow.
# System: RXRa homodimer (NR concentration 180 nM)
# PROCEDURE TEXT: PBM binding z-score (relative to random genomic background probes); higher = stronger binding; sequences stand for … in GC…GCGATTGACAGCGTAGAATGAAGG
Reply with the value as a number alone.

Some sequences with recorded PBM binding z-score:
| ITEM SEQUENCE | ENDPOINT LABEL | RECORDED NUMBER |
| --- | --- | --- |
| TCGAGTAGGTTACAAATGGGGCATTCAGCTTTCT | PBM binding z-score | 0.39 |
| TAGCCTAGGTCATTCGGGGGCCAGTATAGAAAGC | PBM binding z-score | 3.58 |
| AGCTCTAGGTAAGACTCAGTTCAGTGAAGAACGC | PBM binding z-score | -0.208 |
| CCTTACGGGTCACTTCAGGTTATAGCATCGGAGT | PBM binding z-score | 4.38 |

The reported PBM binding z-score of the sequence TCTGCTAGGTCAACGCTGGTCAGCTAATCTGCTA was 2.33

----------
Recorded PBM binding z-score values for a group of sequences are listed next.
# System: RARa homodimer (NR concentration 270 nM)
# PROCEDURE TEXT: PBM binding z-score (relative to random genomic background probes); higher = stronger binding; sequences stand for … in GC…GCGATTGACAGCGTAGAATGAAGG
Just the number, please, no unit after it.

| ITEM SEQUENCE | PBM binding z-score |
| --- | --- |
| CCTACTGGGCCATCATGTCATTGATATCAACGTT | -0.0554 |
| ACTATCAGTTGAGACGAGGGCAACCGATAGGTTG | -0.128 |
| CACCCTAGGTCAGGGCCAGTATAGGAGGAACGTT | -0.0281 |

Here is another sequence to look at.
Please fill in: PBM binding z-score reported for AGAATGAGGTTGCCAAAGATCAGGGAAACGCTTG = -0.509

----------
# Tested on: VDR homodimer (NR concentration 270 nM)
# PROCEDURE TEXT: PBM binding z-score (relative to random genomic background probes); higher = stronger binding; sequences stand for … in GC…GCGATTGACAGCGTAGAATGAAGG
Respond with 1 for PBM binding z-score values of 1 and above, -1 for values below.

Past entries and their recorded results:
| ITEM SEQUENCE | GROUP LABEL |
| --- | --- |
| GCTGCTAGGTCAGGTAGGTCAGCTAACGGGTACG | -1 |
| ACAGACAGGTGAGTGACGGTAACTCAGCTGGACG | -1 |
| TAGCCTAGGTCATGCGGGCCGGTATAGTGTCGGC | -1 |
| AGAACGAGGGCACGCTGAGTTGATAGCTGAGTAG | 1 |
| CAAACTAGGCCACAGAGGTCAAAGTCCGTGCGTA | 1 |
| CAAACTAGGTCAAGAGGTCAAAGCCCGCTTCCCG | 1 |
| TCGAGTAGGTTAGGAGCATTCAGAATGGCGTCGA | -1 |
| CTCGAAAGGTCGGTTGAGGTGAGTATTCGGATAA | -1 |
| ATCTCTAGGTAATCAAGTTCAGTGAATGCCGAAC | 1 |
| CGTATTAGTTGACCATAAGGGCAACCGAAGCTCG | -1 |

Does the sequence TCATATAGGTAAAGGTTAAAGTCGAACGATATGA have recorded PBM binding z-score that is 1 or more?
-1

Given TTACCAAGGCGAAAGGTCGTTGATGCACGCCTTG , state whether its PBM binding z-score is at least 1.
1

Check if PBM binding z-score >= 1 (inclusive). Item: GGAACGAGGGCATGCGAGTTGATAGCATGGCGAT
1

Could you please find out whether TCGAGTAGGTTACCAATGAGGCATTCAGCTTTCT has PBM binding z-score that meets 1 or exceeds it?
-1
